Tested on: HCC-2998 colon
assay text: NCI-60 one-dose screen, 48 h
reported conditions: 10 µM unless noted
Compounds without any hit were thinned out: in the full panel of roughly 83,000, 20% have a hit. Active and inactive are the calls of the source. Rule for the calls: active = growth percent below 10; inactive = the rest.
Labels: active, inactive

1. Cn1c(=O)c2c(nc(NC3=NS(=O)(=O)c4ccccc43)n2Cc2ccccc2)n(C)c1=O : inactive
2. CCn1cc(C(=O)N/N=C/c2ccc(Br)cc2)c(=O)c2cc(F)c(N3CCNC(C)C3)c(F)c21 (stereo unspecified) : inactive
3. CN(Cc1cnc2nc(N)nc(N)c2n1)c1c(Cl)cc(C(=O)NC(CCC(=O)O)C(=O)O)cc1Cl (stereo unspecified) : inactive
4. CCN1C(=O)N(CC)C2C1NN=c1s/c(=C\c3ccccc3Br)c(=O)n12 (stereo unspecified) : inactive
5. Cc1ncc(C(=O)Nc2ccc(CN3CCN(C)CC3)c(C(F)(F)F)c2)cc1C#Cc1cnc(N)c2ccncc12 : active
6. Fc1ccc(COc2ccc(Nc3ncnc4sc5c(c34)CCCC5)cc2)cc1 : inactive
7. Cc1nc2sc(C(=O)Nc3ccccc3)c(N)c2cc1C(=O)/C=C/c1ccccc1 : active
8. COc1ccc(OC)c(Nc2nnc(-c3ccc(Cl)cc3)o2)c1 : inactive
9. COc1ccc(Nc2ncccc2NC(=O)c2cn(Cc3cccc(Oc4ccccc4)c3)nn2)cc1OC : inactive
10. CCOC(=O)c1ccc2c(c1)c1c(C)c3ccncc3c(C)c1n2C : active
11. COC(=O)c1c2c(c(C)[n+]([O-])c1C)C(=O)C=CC2=O : active
12. C/C(=C(/c1ccc(Cl)cc1)c1ccc(OCCCN(C)C)cc1)c1ccc(Cl)cc1 : inactive
13. COc1ccc(NC(=O)c2ccc(C(=O)Nc3ccc(OC)cc3OC)cc2)c(OC)c1 : inactive
14. Brc1ccc(-c2cnc3nonc3n2)cc1 : inactive
15. Cn1cccc1/C=C1\C(=O)Nc2ccccc21 : inactive
16. CCCCCSB(SCCCCC)c1ccccc1 : inactive
17. S=c1[nH]c2cc(Cl)ccc2o1 : inactive
18. COc1cc(C(=O)c2c(-c3ccccc3)oc3c(OC)cccc23)cc(OC)c1O : active
19. Cc1ccc(C)n1/C=C/n1c(C)ccc1C : inactive
20. Cc1cc(F)ccc1S(=O)(=O)Nc1cc(-c2c(O)ccc3ccccc23)c(O)c2ccccc12 : active
21. Cn1cc(C(=O)c2nc(-c3c[nH]c4ccc(Br)cc34)no2)c2cc(Br)ccc21 : inactive
22. COc1ccc(/C=C/C(=O)c2ccc(NC(=O)CSc3nnc(-c4cc(-c5ccccc5)nc5ccccc45)n3-c3ccccc3)cc2)cc1 : inactive
23. CCC(CC)(N(CC(=O)O)CC(=O)O)C(CC)(CC)N(CC(=O)O)CC(=O)O : inactive
24. CCOC(=O)C/C(=N\Nc1cc(=O)[nH]c2ccc(Cl)cc12)C(=O)OCC : inactive
25. Nc1c(C(=O)O)cc(Cl)cc1[N+](=O)[O-] : inactive
26. COc1ccc(C2=C/C(=C\c3ccc(Cl)cc3)C(=O)N2/N=C/c2ccc(Cl)cc2)cc1 : inactive
27. COc1ccc2c(O)c(/C=C3\N=Nc4ccccc43)oc2c1C[C@H]1CCNC[C@H]1F : inactive
28. CNC(=O)c1cc(Oc2ccc3nc(NC(=O)Nc4ccc(Cl)c(Cl)c4)sc3c2)ccn1 : inactive
29. CCn1cc(C2=C(c3cn(C)c4ncccc34)C(=O)NC2=O)c2cccnc21 : inactive
30. CS(=O)(=O)Nc1cc(-c2ccc3ncnc(Nc4ccc5c(cnn5Cc5cccnc5)c4)c3c2)cnc1Cl : inactive
31. COc1ccc(-c2cc(C(=O)N3N=C(c4ccc(N)cc4)CC3c3ccccc3)c3ccccc3n2)cc1 (stereo unspecified) : inactive
32. COCCCOc1cc(C[C@@H](C[C@H](N)[C@@H](O)C[C@H](C(=O)NCC(C)(C)C(N)=O)C(C)C)C(C)C)ccc1OC : inactive
33. CCC/C(=N\NC(N)=O)C(OC)OC : inactive
34. Oc1c(CN2CCCC2)cc(COCc2ccccc2)c2cccnc12 : inactive
35. CCOC(=O)c1c2c(n3c1NCC3)-c1ccccc1C2=O : inactive
36. CCOC(=O)c1n[nH]n2c1nc(=O)c1cnn(C)c12 : inactive

---

Tested on: RPMI-8226 leukemia
assay text: NCI-60 one-dose screen, 48 h (100 = growth as untreated, 0 = no growth, -100 = all killed)
reported conditions: 10 µM unless noted
About 83,000 compounds went through this panel and 20% of them were active in at least one assay; those are over-represented in the sample as a whole. Activity calls are given as the source filed them. Rule for the calls: active = growth percent below 10; inactive = the rest.
readout name: growth

1. COc1ccc(-c2cc(-c3cc(OC)c(OC)c(OC)c3)c(C#N)c(=O)n2CCCCCC(=O)NO)cc1 : 72.8% (inactive)
2. CN1CCN(Cc2cc(NC(=O)c3cccc(C#Cc4cccc5[nH]nc(N)c45)c3)cc(C(F)(F)F)c2)CC1 : 11.2% (inactive)
3. Cc1cccc(N2CCN(C(=S)c3ccc4c(c3)OCO4)CC2)c1 : 20% (inactive)
4. CCN1C(=S)N(CC)C2C1NC(=S)N2/N=C/C=C/c1ccccc1OC (stereo not drawn) : 24.6% (inactive)
5. O=C1OCC2=C1C(c1cccc(C(F)(F)F)c1)c1cc3c(cc1N2CCO)OCO3 (stereo not drawn) : 21% (inactive)
6. CC(C)CN1CC(C(=O)Nc2ccc3c(c2)-c2ccccc2C3)CC1=O (stereo not drawn) : 55% [50 µM] (inactive)
7. C=NNc1ccccc1 : 97.6% (inactive)
8. COc1cc(C(=O)C(=O)c2cc(OC)c(O)c(OC)c2)cc(OC)c1O : 91.3% (inactive)

---

System: NCI-H226 lung
assay text: NCI-60 one-dose screen, 48 h
reported conditions: 10 µM unless noted
Compounds without any hit were thinned out: in the full panel of roughly 83,000, 20% have a hit. The source made the active and inactive calls. The calls were made as follows: active = growth percent below 10; inactive = the rest.
Labels: y (active), n (inactive)

1) COc1ccc2cc(Cn3cc[n+](Cc4ccc5ccccc5c4)c3)ccc2c1 : n
2) Cc1cc(N2CCN(C)CC2)nc(NCc2cc(Nc3ccnc4cc(Cl)ccc34)ccc2F)n1 : n
3) N#Cc1c(Nc2ccc(F)cc2)n[nH]c1-c1cccs1 : n
4) CCOC(=O)c1c(C)nc2c(c1N)CC(=O)N2Cc1cc(OC)c(OC)c(OC)c1 : n
5) CCSC1=CC(=O)c2ccccc2C1=O : n
6) CCn1c2ccc(O)cc2c2c(C)c3c[n+](C(C)C)ccc3c(C)c21 : n
7) Cn1cccc1/C=C1\C(=O)Nc2ccccc21 : n
8) Cc1c(N2CN3C[C@H](C)N4CN(c5c(C)n(C)n(-c6ccccc6)c5=O)CN5C[C@@H](C)N(C2)C3C54)c(=O)n(-c2ccccc2)n1C (some centres not stated) : n
9) Cc1nc2sc(C(=O)Nc3cccc(Cl)c3)c(N)c2cc1C(O)c1ccccc1 (configuration not stated) : n
10) CCCCCCCC/C=C\CCCCCCCCOc1ccccc1CC(=O)NCC[N+]1(C)CCCCC1 : n
11) O=C1C(Cl)=C(NCCN2CCOCC2)C(=O)c2ncccc21 : y
12) CNC(=O)c1c(NC(=O)c2ccc(C(C)(C)C)cc2)sc2c(CN(C)C)c(O)ccc12 : n

---

System: MCF7 breast
assay text: NCI-60 one-dose screen, 48 h
reported conditions: 10 µM unless noted
The panel holds about 83,000 compounds, 20% with a hit somewhere; the sample as a whole holds those more often. Calls of active or inactive are those of the source. The calls were made as follows: active = growth percent below 10; inactive = the rest.
Labels: T for active, F for inactive

1) Cc1ccc2[nH]c(=O)c3c(c2c1)OC(N)=C(C#N)C31C(=O)c2cccc3cccc1c23 (stereo not given) : F
2) COc1cc(C(=O)/C=C/c2ccc(N3CCN(C)CC3)cc2)cc(OC)c1OC : F
3) COc1ccc(C(c2cc(OC)c(OC)c(OC)c2)N2CCCC2)cc1 (stereo not given) : F
4) COc1cc2oc(-c3cccc(NC(=O)c4ccc5c(c4)OCO5)c3)cc(=O)c2c(OC)c1OC : F
5) CC[C@H](Nc1nc(N)nc(C)c1C#N)c1nc2cccc(NCCCCCC(=O)NO)c2c(=O)n1-c1ccccc1 : F
6) COc1cc(-c2nc(NC(C)=O)sc2-c2ccnc(NCCNS(=O)(=O)c3ccccc3)n2)ccc1Cl : F
7) O=C(CCl)Nc1ccc2c(Nc3cc(O)ccc3Cl)ncnc2c1 : T
8) COc1ccc(-c2cn(-c3ccc(Cl)cc3)c(SCC(=O)c3ccc([N+](=O)[O-])cc3)n2)cc1 : F
9) COc1ccc(/C=C/C(=O)c2ccc(NC(=O)CSc3nnc(-c4cc(-c5ccccc5)nc5ccccc45)n3-c3ccccc3)cc2)cc1 : F
10) Cc1ccc(/C=C(\C#N)C(=O)Nc2ncc(Cc3cc(Cl)ccc3Cl)s2)o1 : F

---

System: ACHN renal
assay text: NCI-60 one-dose screen, 48 h
reported conditions: 10 µM unless noted
About 83,000 compounds went through this panel and 20% of them were active in at least one assay; those are over-represented in the sample as a whole. Calls of active or inactive are those of the source. Rule for the calls: active = growth percent below 10; inactive = the rest.
Labels: 1.0 for active, 0.0 for inactive

1) COc1ccc(/C=C/C(=O)c2cc3c(N)c(C(=O)Nc4ccccc4C)sc3nc2C)cc1 : 0.0
2) C#Cc1cccc(Nc2nc3ccc([N+](=O)[O-])cc3nc2Nc2cccc(C#C)c2)c1 : 1.0
3) Cc1c2cnccc2c(C)c2c1c1cc(C3OCCCO3)ccc1n2C : 1.0
4) C/C(=N\Nc1nc(C)cs1)c1cc2ccccc2o1 : 0.0
5) N#Cc1c(-c2ccccc2)nc2c(c(-c3ccccc3)nn2-c2ccccc2)c1-c1ccc(N2CCOCC2)cc1 : 0.0
6) COc1cc2nc(Nc3cccc(F)c3)nc(Nc3cc(C)[nH]n3)c2cc1OC : 1.0
7) CN1CCCc2cc(/C=C3/SC(=S)N(CCc4ccc(O)cc4)C3=O)ccc21 : 0.0
8) Nc1ccc([N+](=O)[O-])cc1N=C/C=C/c1ccccc1 : 0.0
9) COc1cc(C(=O)c2c(-c3ccccc3)oc3c(OC)cccc23)cc(OC)c1O : 0.0
10) O=S(=O)(c1ccccc1)N1CCCN(c2nc(-c3ccccc3)nc3nc(-c4ccccc4)oc23)CC1 : 0.0
